System: cellular ROCK activity (cofilin phosphorylation at Ser3) in A7r5 rat smooth muscle cells
assay-explanation: Cellular ROCK activity: cofilin (Ser3) phosphorylation, In-Cell Western assay
Type: cell-based
condition-context: Rattus norvegicus, A7R5, 1 h, 1 hour compound incubation, phospho-cofilin (Ser3), read-out: CELL_IC50
pIC50: −log10 of the molar value.
If the reported pIC50 equals or exceeds 7, assign true. If not, assign false.

Request: Hi, just wondering whether COc1cccc(CN2C[C@H]3CN(c4ccncc4F)CCN3C2=O)c1 shows pIC50 of 7 or higher.
Result: false

Request: Hi, just wondering whether C[C@@H]1CN(c2ccncc2F)CCN1C(=O)N[C@H](C)c1cccc2nn(C)cc12 shows pIC50 of 7 or higher.
Result: true

Request: Hi, just wondering whether CC[C@@H]1CN(c2ccncc2F)CCN1C(=O)N[C@H](C)c1cccc(OC)c1 shows pIC50 of 7 or higher.
Result: true

Request: Hi, just wondering whether Cc1cc2c([C@@H](C)NC(=O)N3CCN(c4ccncc4F)C[C@H]3C)cccc2o1 shows pIC50 of 7 or higher.
Result: true

Request: Hi, just wondering whether COc1cccc([C@@H](C)NC(=O)N2CCN(c3ccncc3F)C[C@H]2C)c1F shows pIC50 of 7 or higher.
Result: false

Request: Hi, just wondering whether [2H]C([2H])([2H])Oc1cccc([C@H](NC(=O)N2CCN(c3ccncc3F)C[C@H]2C)C([2H])([2H])[2H])c1 shows pIC50 of 7 or higher.
Result: true

Request: Hi, just wondering whether C[C@@H]1CN(c2ccncc2F)CCN1C(=O)N[C@H](C)c1cccc2c1CCO2 shows pIC50 of 7 or higher.
Result: true

Request: Hi, just wondering whether Cc1cnc2cccc([C@H](C)NC(=O)N3CCN(c4ccnc(F)c4)C[C@H]3C)n12 shows pIC50 of 7 or higher.
Result: false

Request: Hi, just wondering whether C[C@@H]1CN(c2ccncc2F)CCN1C(=O)OCc1cccc2nccn12 shows pIC50 of 7 or higher.
Result: false

Request: Hi, just wondering whether COc1cccc(CN2CC[C@@H]3CN(c4ccncc4F)CCN3C2=O)c1 shows pIC50 of 7 or higher.
Result: false

---

System: cellular ROCK activity (cofilin phosphorylation at Ser3) in A7r5 rat smooth muscle cells
assay-explanation: Cellular ROCK activity: cofilin (Ser3) phosphorylation, In-Cell Western assay
Format: cell-based
condition-context: Rattus norvegicus, A7R5, 1 h, 1 hour compound incubation, phospho-cofilin (Ser3), read-out: CELL_IC50
Please use Fulfilled for IC50 under 60 nM and Not fulfilled for everything else, ties included.

Request: Say whether its IC50 is strictly beneath 60 nM. Entry: COc1cccc([C@@H](C)NC(=O)N2CCN(c3ccncc3Cl)C[C@H]2C)c1
Result: Fulfilled

Request: Say whether its IC50 is strictly beneath 60 nM. Entry: COc1cccc([C@@H](C)NC(=O)N2CCN(c3ccncc3F)[C@@H](C)C2)c1
Result: Not fulfilled

Request: Say whether its IC50 is strictly beneath 60 nM. Entry: COc1cccc(CNC(=O)N2CCN(c3ccncc3F)CC2)c1
Result: Not fulfilled

Request: Say whether its IC50 is strictly beneath 60 nM. Entry: COc1cccc([C@@H](C)NC(=O)N2C[C@H]3C[C@@H]2CN3c2ccncc2F)c1
Result: Not fulfilled

Request: Say whether its IC50 is strictly beneath 60 nM. Entry: COc1ccc(Cl)c([C@@H](C)NC(=O)N2CCN(c3ccncc3F)C[C@H]2C)c1
Result: Not fulfilled

Request: Say whether its IC50 is strictly beneath 60 nM. Entry: C[C@@H]1CN(c2ccncc2F)CCN1C(=O)N[C@H](C)c1cccc2c1OCO2
Result: Fulfilled

Request: Say whether its IC50 is strictly beneath 60 nM. Entry: O=C(NCc1cccc2occc12)N1CCN(c2ccncc2F)CC1
Result: Not fulfilled

Request: Say whether its IC50 is strictly beneath 60 nM. Entry: COc1cccc(CNC(=O)N2CCN(c3ccnc(F)c3)C[C@H]2C)c1
Result: Not fulfilled

Request: Say whether its IC50 is strictly beneath 60 nM. Entry: Cc1cnc2cccc([C@H](C)NC(=O)N3CCN(c4ccncc4F)C[C@H]3C)n12
Result: Not fulfilled

Request: Say whether its IC50 is strictly beneath 60 nM. Entry: COc1cccc([C@@H](C)OC(=O)N2CCN(c3ccncc3F)C[C@H]2C)c1
Result: Not fulfilled

Request: Say whether its IC50 is strictly beneath 60 nM. Entry: COc1ncccc1CNC(=O)N1CCN(c2ccncc2F)C[C@H]1C
Result: Not fulfilled

Request: Say whether its IC50 is strictly beneath 60 nM. Entry: C[C@@H]1CN(c2ccncc2F)CCN1C(=O)N[C@H](C)c1cccc2occc12
Result: Fulfilled

Request: Say whether its IC50 is strictly beneath 60 nM. Entry: C[C@@H]1CN(c2ccncc2F)CCN1C(=O)N[C@H](C)c1cccc2ccn(C)c12
Result: Fulfilled

Request: Say whether its IC50 is strictly beneath 60 nM. Entry: C[C@@H](NC(=O)N1CCN(c2ccnc(F)c2)[C@@H](C)C1)c1cccc(OC(F)F)c1
Result: Not fulfilled

Request: Say whether its IC50 is strictly beneath 60 nM. Entry: COc1cccc(CN2C[C@@H]3CN(c4ccncc4F)CCN3C2=O)c1
Result: Not fulfilled

Request: Say whether its IC50 is strictly beneath 60 nM. Entry: COc1cccc(CNC(=O)N2[C@H](C)CN(c3ccncc3F)C[C@H]2C)c1
Result: Not fulfilled

---

target-system: human catalytic domain ROCK II protein (amino acids 5-554) with a N-terminal GST tag (Homo sapiens, UniProt O75116)
Sequence (O75116 5-554): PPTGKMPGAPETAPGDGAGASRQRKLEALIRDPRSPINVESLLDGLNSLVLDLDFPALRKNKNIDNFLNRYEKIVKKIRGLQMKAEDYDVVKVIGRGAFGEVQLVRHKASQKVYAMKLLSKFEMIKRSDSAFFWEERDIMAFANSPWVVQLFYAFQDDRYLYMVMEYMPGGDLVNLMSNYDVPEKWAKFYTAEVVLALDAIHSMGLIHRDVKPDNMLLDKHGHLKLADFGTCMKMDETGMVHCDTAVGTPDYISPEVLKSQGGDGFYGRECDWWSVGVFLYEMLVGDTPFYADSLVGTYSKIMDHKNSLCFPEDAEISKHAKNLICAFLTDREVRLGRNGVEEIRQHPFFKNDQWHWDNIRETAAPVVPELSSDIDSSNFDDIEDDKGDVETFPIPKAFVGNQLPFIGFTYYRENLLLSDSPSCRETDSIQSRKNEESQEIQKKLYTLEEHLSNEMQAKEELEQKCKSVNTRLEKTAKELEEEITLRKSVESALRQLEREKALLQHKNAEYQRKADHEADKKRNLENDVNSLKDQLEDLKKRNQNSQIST
assay-explanation: biochemical
pIC50: −log10 of the molar value.
If the reported pIC50 equals or exceeds 7, assign Met. If not, assign Not met.

Request: Hi, just wondering whether C[C@@H]1CN(c2ccncc2F)CCN1C(=O)N[C@H](C)c1ccc(F)cc1Cl [Example 50] shows pIC50 of 7 or higher.
Result: Met

Request: Hi, just wondering whether COc1ncccc1CNC(=O)N1CCN(c2ccncc2F)C[C@H]1C [Example 56] shows pIC50 of 7 or higher.
Result: Not met

Request: Hi, just wondering whether COc1cccc([C@@H](C)NC(=O)N2CCN(c3ccncc3F)CC2)c1 [Example 16] shows pIC50 of 7 or higher.
Result: Met

Request: Hi, just wondering whether COc1cccc(CNC(=O)N2CCN(c3ccncc3F)CC2)c1 [Example 25] shows pIC50 of 7 or higher.
Result: Met

Request: Hi, just wondering whether COc1cccc([C@@H](C)NC(=O)N2CCN(c3ccncc3F)[C@H]3C[C@H]32)c1 [Example 152] shows pIC50 of 7 or higher.
Result: Met

Request: Hi, just wondering whether COc1cccc(CN2CC[C@@H]3CN(c4ccncc4F)CCN3C2=O)c1 [Example 89] shows pIC50 of 7 or higher.
Result: Met

---

Test system: cellular ROCK activity (cofilin phosphorylation at Ser3) in A7r5 rat smooth muscle cells
assay-explanation: Cellular ROCK activity: cofilin (Ser3) phosphorylation, In-Cell Western assay
Format: cell-based
condition-context: Rattus norvegicus, A7R5, 1 h, 1 hour compound incubation, phospho-cofilin (Ser3), read-out: CELL_IC50
Description: The potency of Rho-associated protein kinase (ROCK) inhibitors was quantified by measuring cofilin phosphorylation levels at Serine 3 (Ser3) as a measure of cellular ROCK activity by In-Cell Western assay. […] The assay plate was imaged and quantified on the Odyssey imager (LICOR Biosciences). […] Assay procedure. […] Finally, assay plate was washed and wells left empty before measurement of 700 nm and 800 nm fluorescence intensities on Odyssey imager set at 4.0 mm focus offset.
Where a name gives a salt, the structure may show the parent alone.
measure-name: IC50 (nM)
Numbers only here, please. The scale is nM.

Request: Please look up its IC50: COc1cccc([C@@H](C)OC(=O)N2CCN(c3ccnc(F)c3)C[C@H]2C)c1
Result: 1690

Request: Please look up its IC50: C[C@@H](NC(=O)N1CCN(c2ccncc2F)CC1)c1cccc2occc12
Result: 54.1

Request: Please look up its IC50: COc1cccc(CNC(=O)N2CCN(c3ccncc3F)C[C@H]2C)c1
Result: 97.5

Request: Please look up its IC50: C[C@@H](NC(=O)N1CCN(c2ccncc2F)CC1)c1cccc2c1CCO2
Result: 27.2

Request: Please look up its IC50: COc1cccc([C@@H](C)NC(=O)N2CCN(c3ccncc3F)[C@H]3C[C@H]32)c1
Result: 248

Request: Please look up its IC50: C[C@@H]1CN(c2ccncc2F)CCN1C(=O)N[C@H](C)c1cccc2c1CC(C)(C)O2
Result: 39.1

Request: Please look up its IC50: C[C@@H]1CN(c2ccncc2F)CCN1C(=O)NCc1cccc2c1OCO2
Result: 150

Request: Please look up its IC50: COc1ccc(F)c([C@@H](C)NC(=O)N2CCN(c3ccnc(F)c3)C[C@H]2C)c1
Result: 1320

Request: Please look up its IC50: C[C@@H](NC(=O)N1CCN(c2ccncc2F)[C@@H](C)C1)c1ccccc1Cl
Result: 2090

Request: Please look up its IC50: COc1cccc([C@@H](C)NC(=O)N2CCN(c3ccnc(F)c3)CC2)c1
Result: 871

Request: Please look up its IC50: C[C@@H]1CN(c2ccnc(F)c2)CCN1C(=O)N[C@H](C)c1cccc2c1CCO2
Result: 30.3

Request: Please look up its IC50: COc1cccc([C@@H](C)NC(=O)N2CCN(c3ccncc3F)C[C@H]2C)c1Cl
Result: 1040

Request: Please look up its IC50: Cc1nc2c([C@H](C)NC(=O)N3CCN(c4ccncc4F)C[C@H]3C)cccc2o1
Result: 3000

Request: Please look up its IC50: Cc1cc2c([C@@H](C)NC(=O)N3CCN(c4ccncc4F)CC3)cccc2o1
Result: 189

Request: Please look up its IC50: Cc1cnc2cccc([C@@H](C)NC(=O)N3CCN(c4ccnc(F)c4)C[C@H]3C)n12
Result: 240

Request: Please look up its IC50: C[C@@H](NC(=O)N1CCN(c2ccncc2F)[C@@H](C)C1)c1cccc(OC(F)F)c1
Result: 413

Request: Please look up its IC50: C[C@@H](NC(=O)N1CCN(c2ccnc(F)c2)CC1)c1cccc2occc12
Result: 830

Request: Please look up its IC50: COc1cccc([C@H](C)NC(=O)N2CCN(c3ccncc3F)CC2)c1Cl
Result: 4310

Request: Please look up its IC50: COc1cccc([C@@H](C)NC(=O)N2[C@H](C)CN(c3ccncc3F)C[C@H]2C)c1 [Example 97, Formate]
Result: 114

Request: Please look up its IC50: CC(NC(=O)N1CCN(c2ccncc2F)CC1)c1cccc(F)c1Cl (single isomer, unassigned)
Result: 1020

Request: Please look up its IC50: COc1ccc(F)c([C@@H](C)NC(=O)N2CCN(c3ccncc3F)CC2)c1
Result: 924

Request: Please look up its IC50: C[C@@H](NC(=O)N1CCN(c2ccncc2F)CC1)c1ccc(F)cc1Cl
Result: 1780

Request: Please look up its IC50: C[C@H](NC(=O)N1CCN(c2ccncc2F)C[C@H]1C)c1cccc2c1N(C)CCO2
Result: 674

Request: Please look up its IC50: COc1cccc([C@H](C)NC(=O)N2CCN(c3ccncc3F)C[C@H]2C)c1Cl
Result: 2620

Request: Please look up its IC50: O=C(NCc1cccc2ncoc12)N1CCN(c2ccncc2F)CC1
Result: 559

Request: Please look up its IC50: C[C@@H]1CN(c2ccncc2F)CCN1C(=O)N[C@H](C)c1ccc(F)cc1Cl
Result: 184

Request: Please look up its IC50: C[C@@H](NC(=O)N1CCN(c2ccncc2F)CC1)c1ccccc1Br
Result: 1470

Request: Please look up its IC50: C[C@@H]1CN(c2c(F)cncc2F)CCN1C(=O)N[C@H](C)c1cccc2c1CCO2
Result: 4.9

Request: Please look up its IC50: C[C@@H](NC(=O)N1CCN(c2ccncc2F)CC1)c1cccc2ccn(C)c12
Result: 410

Request: Please look up its IC50: C[C@@H]1CN(c2ccnc(F)c2)CCN1C(=O)NCc1cccc2occc12
Result: 676

Request: Please look up its IC50: COc1cccc([C@@H](C)NC(=O)N2CCN(c3ccnc(F)c3)[C@@H](C)C2)c1
Result: 107

Request: Please look up its IC50: C[C@@H]1CN(c2ccncc2F)CCN1C(=O)N[C@H](C)c1cccn2nccc12
Result: 13.8
